In this section we review reported pEC50 values for a set of compounds.
# target of assay: UniProtKB P28335
# Sequence (P28335 33-458): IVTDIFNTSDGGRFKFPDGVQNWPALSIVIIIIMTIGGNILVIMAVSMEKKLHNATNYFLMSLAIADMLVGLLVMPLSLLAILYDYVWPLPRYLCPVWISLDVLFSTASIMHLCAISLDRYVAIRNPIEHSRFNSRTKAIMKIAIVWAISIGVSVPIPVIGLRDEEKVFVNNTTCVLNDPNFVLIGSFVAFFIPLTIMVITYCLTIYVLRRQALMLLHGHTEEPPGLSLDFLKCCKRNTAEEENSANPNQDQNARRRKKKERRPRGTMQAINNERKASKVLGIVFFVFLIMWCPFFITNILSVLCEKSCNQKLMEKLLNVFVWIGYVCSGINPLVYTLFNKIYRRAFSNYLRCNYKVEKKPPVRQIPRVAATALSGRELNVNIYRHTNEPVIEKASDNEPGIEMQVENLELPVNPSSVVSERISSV
# assay: Functional activity, FLIPR calcium assay in CHO cells expressing human 5-HT2C
# Assay type: cell-based
# Design: expressed in transfected cells; host or cells: CHO cells
pEC50 (log units): -log10 of the concentration in mol/L.

Take a look at these entries with their results.
CC(C)Sc1ccc2c(c1)N(C[C@H](C)N)CC2 [Example 42] | 7.27
C[C@H](N)CN1CCc2ccc(Cl)c(F)c21 [Example 27] | 6.63
C[C@H](N)CN1CCc2ccc(C(F)(F)F)cc21 [Example 24] | 6.88
CCSc1ccc2c(c1)N(C[C@H](C)N)CC2 [Example 40] | 8.52
C[C@H](N)CN1CCc2cccc(Br)c21 [Example 20] | 6.12

Then there is this compound:
-- ask May I ask what pEC50 has been recorded for C[C@H](N)CN1CCc2cc(Cl)ccc21 [Example 28] ?
-- reply 6.62

###

# target of assay: human 5-HT2B receptors (Homo sapiens)
# Construct: expressed in transfected cells; host or cells: CHO cell line
# Sequence (P41595 whole entry): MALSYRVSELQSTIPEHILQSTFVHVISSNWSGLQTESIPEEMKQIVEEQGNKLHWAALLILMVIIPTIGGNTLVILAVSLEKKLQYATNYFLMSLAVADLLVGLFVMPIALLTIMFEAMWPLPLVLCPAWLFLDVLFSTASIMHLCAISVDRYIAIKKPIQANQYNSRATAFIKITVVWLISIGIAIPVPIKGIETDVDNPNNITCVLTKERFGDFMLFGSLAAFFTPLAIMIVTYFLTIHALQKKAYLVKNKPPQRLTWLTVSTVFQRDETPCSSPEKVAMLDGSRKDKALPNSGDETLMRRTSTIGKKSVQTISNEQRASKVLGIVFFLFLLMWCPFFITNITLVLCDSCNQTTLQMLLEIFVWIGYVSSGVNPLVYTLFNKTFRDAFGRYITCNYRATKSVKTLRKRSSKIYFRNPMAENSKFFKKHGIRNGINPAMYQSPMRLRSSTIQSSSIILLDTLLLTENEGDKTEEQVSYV
# assay: Binding to 5-HT2B receptor, [3H]-5-HT radioligand, CHO cell line
Counter-ions that a name gives are not always drawn.
observable: Ki (µM)
Please reply with the bare figure in µM and do not write the unit itself.

-- ask Form field - read-out: Ki; system: human 5-HT2B receptors (Homo sapiens); submitted item: CC(N)CN1CCc2ccc(Cl)cc21 (racemic) [Example 1, Hydrochloride]
-- reply 0.113

-- ask Another compound to look at: C[C@H](N)CN1CCc2cc(F)c(F)cc21 [Example 22]
-- reply 0.092

-- ask Same question, COc1ccc2c(c1)N(C[C@H](C)N)CC2 [Example 13] this time
-- reply 0.175

-- ask Thanks! And C[C@H](N)CN1CCc2ccc(C(F)(F)F)cc21 [Example 24] ?
-- reply 0.148

-- ask Please do the same for C[C@H](N)CN1CCc2ccc(Cl)cc21 [Example 10, Fumarate] as well.
-- reply 0.138

###

# target of assay: human 5-HT2B receptors (Homo sapiens)
# Construct: expressed in transfected cells; host or cells: CHO cell line
# assay: Binding to 5-HT2B receptor, [3H]-5-HT radioligand, CHO cell line
Reported Ki values for a set of molecules

-- ask Tell me the measured Ki of "C[C@@H](N)CN1CCc2ccc(C(F)(F)F)cc21" , please.
-- reply 0.761 µM

-- ask "C[C@H](N)CN1CCc2ccc(Br)cc21" , same question.
-- reply 0.042 µM

-- ask For "C[C@H](N)CN1CCc2cc(F)c(Br)cc21" then?
-- reply 0.022 µM
